Assay: qHTS assay to identify small molecule antagonists of the constitutive androstane receptor (CAR) signaling pathway - cell viability counter screen (AID 1224837); note: nearly all actives have a fitted effect of over 45% in size
Conditions: HepG2-CYP2B6-hCAR viability, CellTiter-Fluor, 23 h, co-treated with 50 nM CITCO; series mostly up to 92.4 µM
Method: National Center for Advancing Translational Sciences [NCATS] NIH Chemical Genomics Center [NCGC] U.S. Environmental Protection Agency [EPA] National Institutes of Environmental Health Sciences [NIEHS] National Toxicology Program [NTP] […] A double-stable (hCAR and CYP2B6-2.2kb) transfected cell line, derived from human hepatoma (HepG2) cells, was utilized for the duration of the quantitative high-throughput screens. […] The fluorescence intensity in the plates was then measured using a ViewLux plate reader.
Inconclusive results are not listed. Active and inactive are the calls of the source. Calls come from the whole dose curve; as a rule, active = well fitted cell-killing curve with a large enough effect in the repeat runs; inconclusive = weak or mixed curves, or effect the other way; inactive = flat fitted curve, though single readings scatter.
Bench note: report the call from true = active, false = inactive

Prompt line: How was N#CSc1ccc(N)c([N+](=O)[O-])c1 classified in this test?
Response line: true
